// provenance: patent US20200216417A1

target: recombinant human DPP9 (rhDPP9) (Homo sapiens); construct: purchased R&S system / R&D systems (both sic) 5419-SE; experiment: DPP9 inhibition assay, 10 ng rhDPP9, Tris-HCl/BSA buffer; type: biochemical; conditions: Table 3B
Sequence (Q86TI2 whole entry): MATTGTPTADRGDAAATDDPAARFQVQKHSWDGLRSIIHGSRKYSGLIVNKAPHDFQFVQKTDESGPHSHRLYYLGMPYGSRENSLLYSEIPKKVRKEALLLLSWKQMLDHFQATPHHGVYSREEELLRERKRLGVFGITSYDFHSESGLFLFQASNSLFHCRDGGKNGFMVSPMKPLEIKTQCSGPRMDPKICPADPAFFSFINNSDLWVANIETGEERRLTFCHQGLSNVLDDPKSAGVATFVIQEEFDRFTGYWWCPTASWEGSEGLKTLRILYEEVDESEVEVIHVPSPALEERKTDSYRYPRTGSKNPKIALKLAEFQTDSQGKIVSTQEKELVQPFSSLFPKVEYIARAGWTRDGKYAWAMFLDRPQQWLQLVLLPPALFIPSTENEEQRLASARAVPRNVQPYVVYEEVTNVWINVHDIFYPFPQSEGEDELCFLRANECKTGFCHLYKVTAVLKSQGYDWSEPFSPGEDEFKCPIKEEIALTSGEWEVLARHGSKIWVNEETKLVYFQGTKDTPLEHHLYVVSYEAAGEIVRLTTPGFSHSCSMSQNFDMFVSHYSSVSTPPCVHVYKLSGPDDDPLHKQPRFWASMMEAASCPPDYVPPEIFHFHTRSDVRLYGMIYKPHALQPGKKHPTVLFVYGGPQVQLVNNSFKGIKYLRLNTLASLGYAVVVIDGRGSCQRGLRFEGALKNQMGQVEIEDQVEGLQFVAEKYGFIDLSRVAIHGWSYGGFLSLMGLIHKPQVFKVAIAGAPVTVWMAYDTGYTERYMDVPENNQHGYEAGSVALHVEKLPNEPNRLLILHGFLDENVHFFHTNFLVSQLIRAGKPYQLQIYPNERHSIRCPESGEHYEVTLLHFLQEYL
pIC50: −log10 of the molar value.
QUANTITY_KIND: pIC50

Recorded pIC50, per entry:
{"LINE_NOTATION": "N#C[C@@H]1CC(F)(F)CN1C(=O)CNC(=O)c1ccncc1/C=C/c1ccc(C(F)(F)F)cc1", "SYSTEM": "recombinant human DPP9 (rhDPP9) (Homo sapiens)", "pIC50": "5.00 to 6.00"}
{"LINE_NOTATION": "CC(C)(C)c1ccc(/C=C/c2ccc3nccc(C(=O)NCC(=O)N4CC(F)(F)C[C@H]4C#N)c3c2)cc1", "SYSTEM": "recombinant human DPP9 (rhDPP9) (Homo sapiens)", "pIC50": "5.00 to 6.00"}
{"LINE_NOTATION": "N#C[C@@H]1CC(F)(F)CN1C(=O)CNC(=O)c1ccnc2ccc(/C=C/c3ccc(O)nc3)cc12", "SYSTEM": "recombinant human DPP9 (rhDPP9) (Homo sapiens)", "pIC50": "> 6.00"}
{"LINE_NOTATION": "N#C[C@@H]1CC(F)(F)CN1C(=O)CNC(=O)c1ccnc2ccc(/C=C/c3ccnc(C(F)(F)F)c3)cc12", "SYSTEM": "recombinant human DPP9 (rhDPP9) (Homo sapiens)", "pIC50": "> 6.00"}
{"LINE_NOTATION": "COc1ccc(C#Cc2ccc3nccc(C(=O)NCC(=O)N4CC(F)(F)C[C@H]4C#N)c3c2)cc1", "SYSTEM": "recombinant human DPP9 (rhDPP9) (Homo sapiens)", "pIC50": "> 6.00"}

Lab note: each molecule below needs its pIC50 filled in.
1. N#C[C@@H]1CC(F)(F)CN1C(=O)CNC(=O)c1ccnc2ccc(-c3ccc(C(F)(F)F)cc3)cc12
2. COc1ccc(C(=O)Nc2cnccc2C(=O)NCC(=O)N2CC(F)(F)C[C@H]2C#N)cc1
3. N#C[C@@H]1CC(F)(F)CN1C(=O)CNC(=O)c1ccncc1NCc1ccc(F)cc1

Output line:
> 6.00
5.00 to 6.00
< 5.00

Input line: Return pIC50 measured with recombinant human DPP9 (rhDPP9) (Homo sapiens) given this molecule: `N#C[C@@H]1CC(F)(F)CN1C(=O)CNC(=O)c1ccncc1/C=C/c1ccc2cc(Cl)ccc2c1`
Output line: > 6.00

----------
Target: recombinant human FAPα (rhFAPα) (Homo sapiens, UniProt Q12884)
Construct: purchased R&S system (so in the source)
Sequence (Q12884 1-760): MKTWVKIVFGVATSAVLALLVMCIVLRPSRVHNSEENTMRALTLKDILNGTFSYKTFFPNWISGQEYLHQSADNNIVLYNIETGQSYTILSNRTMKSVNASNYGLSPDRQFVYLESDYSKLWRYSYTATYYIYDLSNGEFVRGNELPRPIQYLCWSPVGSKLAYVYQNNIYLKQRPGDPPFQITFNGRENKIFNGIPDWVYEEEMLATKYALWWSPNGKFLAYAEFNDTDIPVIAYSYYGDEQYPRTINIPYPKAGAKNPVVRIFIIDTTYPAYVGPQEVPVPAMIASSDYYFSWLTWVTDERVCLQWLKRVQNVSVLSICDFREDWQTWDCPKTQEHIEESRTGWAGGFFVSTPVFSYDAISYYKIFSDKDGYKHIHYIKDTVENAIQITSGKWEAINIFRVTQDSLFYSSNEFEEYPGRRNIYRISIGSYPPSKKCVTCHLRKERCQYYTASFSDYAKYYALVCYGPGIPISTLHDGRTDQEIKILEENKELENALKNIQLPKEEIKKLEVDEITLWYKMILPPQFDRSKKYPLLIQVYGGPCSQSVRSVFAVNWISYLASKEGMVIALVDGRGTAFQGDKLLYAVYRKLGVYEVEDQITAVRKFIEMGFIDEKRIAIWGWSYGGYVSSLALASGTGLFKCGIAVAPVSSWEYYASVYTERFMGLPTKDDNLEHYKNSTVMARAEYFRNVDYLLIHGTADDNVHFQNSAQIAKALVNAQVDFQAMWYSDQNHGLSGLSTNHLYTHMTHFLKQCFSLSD
Assay: FAPα enzymatic exopeptidase (dipeptidase) activity assay, Z-Gly-Pro-AMC
Format: biochemical
Details: exopeptidase inhibition at 1 μM test compound; Table 3B; read-out: rhFAPα % exo inh @ 1 μM
Assign inhibition at 1 µM to each entry below.

Recorded inhibition at 1 µM, per entry:
{"COMPOUND": "Cc1ccc(/C=C/c2ccc3nccc(C(=O)NCC(=O)N4CC(F)(F)C[C@H]4C#N)c3c2)nc1 [Compound 49]", "QUANTITY_KIND": "inhibition at 1 µM", "VALUE_REPORTED": "> 50%"}
{"COMPOUND": "COc1cc(/C=C/c2ccc3nccc(C(=O)NCC(=O)N4CC(F)(F)C[C@H]4C#N)c3c2)ccn1 [Compound 193]", "QUANTITY_KIND": "inhibition at 1 µM", "VALUE_REPORTED": "> 50%"}
{"COMPOUND": "C/C(=C\\c1cnccc1C(=O)NCC(=O)N1CC(F)(F)C[C@H]1C#N)c1ccc(OC(F)(F)F)cc1 [Compound 19]", "QUANTITY_KIND": "inhibition at 1 µM", "VALUE_REPORTED": "> 50%"}

Lab note: each compound below needs its inhibition at 1 µM filled in.
1. C=C(Cc1cnccc1C(=O)NCC(=O)N1CC(F)(F)C[C@H]1C#N)c1ccc(F)cc1 [Compound 14]
2. N#C[C@@H]1CC(F)(F)CN1C(=O)CNC(=O)c1ccnc2ccc(/C=C/c3ccc(C(F)(F)F)nc3)cc12 [Compound 46]
3. N#C[C@@H]1CC(F)(F)CN1C(=O)CNC(=O)c1ccncc1/C=C/c1ccc(OC(F)(F)F)cc1 [Compound 33]
4. N#C[C@@H]1CC(F)(F)CN1C(=O)CNC(=O)c1ccncc1/C=C/c1ccc(C(F)(F)F)cc1 [Compound 24]
5. C/C(=C\c1cnccc1C(=O)NCC(=O)N1CC(F)(F)C[C@H]1C#N)c1ccc(F)cc1 [Compound 13]
6. Cc1cc(/C=C/c2ccc3nccc(C(=O)NCC(=O)N4CC(F)(F)C[C@H]4C#N)c3c2)ccn1 [Compound 192]

Output line:
1. > 50%
2. > 50%
3. > 50%
4. > 50%
5. > 50%
6. > 50%

Lab note: each compound below needs its inhibition at 1 µM filled in.
1. N#C[C@@H]1CC(F)(F)CN1C(=O)CNC(=O)c1ccnc2ccc(-c3ccc(C(F)(F)F)nc3)cc12 [Compound 38]
2. COc1ccc(/C(C)=C/c2cnccc2C(=O)NCC(=O)N2CC(F)(F)C[C@H]2C#N)cc1 [Compound 29]
3. N#C[C@@H]1CC(F)(F)CN1C(=O)CNC(=O)c1ccncc1CCc1ccc(Cl)cc1 [Compound 10]
4. N#C[C@@H]1CC(F)(F)CN1C(=O)CNC(=O)c1ccnc2ccc(/C=C/c3ccc(F)cc3)cc12 [Compound 44]
5. N#C[C@@H]1CC(F)(F)CN1C(=O)CNC(=O)c1ccncc1NC(=O)COc1ccc(Cl)c(F)c1 [Compound 5]
6. N#C[C@@H]1CC(F)(F)CN1C(=O)CNC(=O)c1ccnc2ccc(-c3ccc(C(F)(F)F)cc3)cc12 [Compound 35]

Output line:
1. > 50%
2. > 50%
3. > 50%
4. > 50%
5. > 50%
6. > 50%

Lab note: each compound below needs its inhibition at 1 µM filled in.
1. C/C(=C\c1ccc2nccc(C(=O)NCC(=O)N3CC(F)(F)C[C@H]3C#N)c2c1)c1ccc(Cl)cc1 [Compound 39]
2. N#C[C@@H]1CC(F)(F)CN1C(=O)CNC(=O)c1ccncc1NCc1ccc(F)cc1 [Compound 2]
3. N#C[C@@H]1CC(F)(F)CN1C(=O)CNC(=O)c1ccncc1NC(=O)Cc1ccccc1 [Compound 1]
4. Cc1ccc(/C=C/c2ccc3nccc(C(=O)NCC(=O)N4CC(F)(F)C[C@H]4C#N)c3c2)cn1 [Compound 45]
5. COc1ccc(/C=C/c2ccc3nccc(C(=O)NCC(=O)N4CC(F)(F)C[C@H]4C#N)c3c2)cn1 [Compound 43]

Output line:
1: > 50%; 2: > 50%; 3: > 50%; 4: > 50%; 5: > 50%

Lab note: each compound below needs its inhibition at 1 µM filled in.
1. N#C[C@@H]1CC(F)(F)CN1C(=O)CNC(=O)c1ccnc2ccc(/C=C/c3ccc(O)nc3)cc12 [Compound 139]
2. CC(C)(O)c1ccc(-c2ccc3nccc(C(=O)NCC(=O)N4CC(F)(F)C[C@H]4C#N)c3c2)cc1 [Compound 195]
3. N#C[C@@H]1CC(F)(F)CN1C(=O)CNC(=O)c1ccncc1C#Cc1ccc(Cl)cc1 [Compound 37]
4. C[C@H](Nc1cnccc1C(=O)NCC(=O)N1CC(F)(F)C[C@H]1C#N)c1ccc(F)cc1 [Compound 190]
5. N#C[C@@H]1CC(F)(F)CN1C(=O)CNC(=O)c1ccnc(N2CCN(C(c3ccc(F)cc3)c3ccc(F)cc3)CC2)c1 [Compound 6]
6. N#C[C@@H]1CC(F)(F)CN1C(=O)CNC(=O)c1ccncc1/C=C/c1ccc(F)cc1 [Compound 12]
7. N#C[C@@H]1CC(F)(F)CN1C(=O)CNC(=O)c1ccnc2ccc(/C=C/c3ccc(C(F)(F)F)cc3)cc12 [Compound 51]
8. N#C[C@@H]1CC(F)(F)CN1C(=O)CNC(=O)c1ccncc1CCc1ccc(F)cc1 [Compound 11]

Output line:
["> 50%", "> 50%", "> 50%", "> 50%", "> 50%", "> 50%", "> 50%", "> 50%"]

Lab note: each compound below needs its inhibition at 1 µM filled in.
1. N#C[C@@H]1CC(F)(F)CN1C(=O)CNC(=O)c1ccncc1Cc1ccc(F)cc1 [Compound 8]
2. N#C[C@@H]1CC(F)(F)CN1C(=O)CNC(=O)c1ccnc2ccc(/C=C/c3ccnc(C(F)(F)F)c3)cc12 [Compound 194]

Output line:
["> 50%", "> 50%"]
